Consider the following compounds and their measured EC50 readings.
target: Metabotropic glutamate receptor 3 (Homo sapiens, UniProt Q14832); test: Positive allosteric modulation of human mGluR3 expressed in HEK293 cells assessed as increase in glutamate-induced calcium mobilization preincubated for 10 mins followed by glutamate addition and measured for 3 mins by Fluo4-AM dye based FLIPR assay
Sequence (Q14832 whole entry): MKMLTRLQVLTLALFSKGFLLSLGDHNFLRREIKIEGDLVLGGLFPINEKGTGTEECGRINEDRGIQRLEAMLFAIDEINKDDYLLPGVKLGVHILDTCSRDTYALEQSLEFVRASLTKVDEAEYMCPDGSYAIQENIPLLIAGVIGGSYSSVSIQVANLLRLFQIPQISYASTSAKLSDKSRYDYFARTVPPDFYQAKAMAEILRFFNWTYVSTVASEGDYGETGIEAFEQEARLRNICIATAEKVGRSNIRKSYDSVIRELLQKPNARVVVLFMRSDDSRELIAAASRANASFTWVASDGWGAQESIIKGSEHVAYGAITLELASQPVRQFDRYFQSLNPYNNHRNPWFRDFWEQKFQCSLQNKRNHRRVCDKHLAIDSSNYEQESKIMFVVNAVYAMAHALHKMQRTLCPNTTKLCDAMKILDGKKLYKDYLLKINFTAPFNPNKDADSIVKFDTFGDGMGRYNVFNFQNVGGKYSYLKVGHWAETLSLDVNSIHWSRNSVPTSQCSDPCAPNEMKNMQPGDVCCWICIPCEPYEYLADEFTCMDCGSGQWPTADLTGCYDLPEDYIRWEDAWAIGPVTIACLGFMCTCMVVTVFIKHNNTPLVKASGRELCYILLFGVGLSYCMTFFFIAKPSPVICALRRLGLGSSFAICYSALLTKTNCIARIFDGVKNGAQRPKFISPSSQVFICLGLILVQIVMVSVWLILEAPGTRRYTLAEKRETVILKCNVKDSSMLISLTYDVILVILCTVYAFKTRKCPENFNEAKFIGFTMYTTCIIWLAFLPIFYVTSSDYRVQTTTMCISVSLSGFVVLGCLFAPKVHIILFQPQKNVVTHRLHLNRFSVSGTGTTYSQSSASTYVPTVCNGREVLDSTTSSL

Please review the following examples before continuing.
structure_notation | EC50
COCn1cc2c(n1)C(=O)N(C)Cc1ccc(-c3ccc(F)cn3)cc1-2 | 0.1 to 1 µM
CCn1cc2c(n1)C(=O)N(C)Cc1ccc(-c3cccnc3C)cc1-2 | 0.1 to 1 µM

Then there is this compound:
Query: State EC50 on Metabotropic glutamate receptor 3 (Homo sapiens, UniProt Q14832). Entry: `CN1C(=O)c2ncccc2-c2cc(-c3ccc(F)nc3)ccc2C12CC2`
Result: < 0.1 µM
